For each entry below, report its growth at 10 µM value.
- Test system: HT-29
- protocol_description: Cytotoxicity against human HT-29 cells assessed as cell growth at 10 uM after 48 hrs relative to control
- Assay type: functional
- stated_conditions: HT-29, 48 h, read-out: Activity
Just the number please, in %, no unit attached.

Measured growth at 10 µM for this entry COC(=O)[C@@H](NC(=O)N[C@H](C(=O)N[C@H]1CCCCNC(=O)/C=C/[C@H](Cc2c[nH]c3ccccc23)NC1=O)C(C)C)C(C)C on HT-29: 3.42

Measured growth at 10 µM for this entry COC(=O)[C@@H](NC(=O)N[C@@H](Cc1ccccc1)C(=O)N[C@H]1CCCCNC(=O)/C=C/[C@H](Cc2ccccc2)NC1=O)C(C)C on HT-29: 14.5

Measured growth at 10 µM for this entry COC(=O)[C@@H](NC(=O)N[C@@H](Cc1ccccc1)C(=O)N[C@H]1CCCCNC(=O)/C=C/[C@H](C(C)C)NC1=O)C(C)C on HT-29: 31.1

Measured growth at 10 µM for this entry COC(=O)[C@@H](NC(=O)N[C@H](C(=O)N[C@H]1CCCCNC(=O)/C=C/[C@H](C(C)C)NC1=O)C(C)C)C(C)C on HT-29: 11.7

Measured growth at 10 µM for this entry COC(=O)[C@@H](NC(=O)N[C@@H](Cc1ccccc1)C(=O)N[C@H]1CCCCNC(=O)/C=C/[C@H](Cc2c[nH]c3ccccc23)NC1=O)C(C)C on HT-29: 29.7

====

- Tested on: HCT-116
- protocol_description: Cytotoxicity against human HCT116 cells assessed as cell growth at 10 uM after 48 hrs relative to control
- Type: functional
- stated_conditions: HCT-116, 48 h, read-out: Activity
reported_property: growth at 10 µM (%)
Just the number please, in %, no unit attached.

So for COC(=O)[C@@H](NC(=O)N[C@@H](Cc1ccccc1)C(=O)N[C@H]1CCCCNC(=O)/C=C/[C@H](Cc2ccccc2)NC1=O)C(C)C , the logged growth at 10 µM turned out to be 11.6

So for COC(=O)[C@@H](NC(=O)N[C@@H](Cc1ccccc1)C(=O)N[C@H]1CCCCNC(=O)/C=C/[C@H](Cc2c[nH]c3ccccc23)NC1=O)C(C)C , the logged growth at 10 µM turned out to be 76.4

So for COC(=O)[C@@H](NC(=O)N[C@@H](Cc1ccccc1)C(=O)N[C@H]1CCCCNC(=O)/C=C/[C@H](C(C)C)NC1=O)C(C)C , the logged growth at 10 µM turned out to be 26.5

So for COC(=O)[C@@H](NC(=O)N[C@H](C(=O)N[C@H]1CCCCNC(=O)/C=C/[C@H](C(C)C)NC1=O)C(C)C)C(C)C , the logged growth at 10 µM turned out to be 21.2

So for COC(=O)[C@@H](NC(=O)N[C@H](C(=O)N[C@H]1CCCCNC(=O)/C=C/[C@H](Cc2c[nH]c3ccccc23)NC1=O)C(C)C)C(C)C , the logged growth at 10 µM turned out to be 37.4

====

For each entry below, report its growth at 10 µM value.
- Test system: UO-31
- protocol_description: Cytotoxicity against human UO31 cells assessed as cell growth at 10 uM after 48 hrs relative to control
- Type: functional
- stated_conditions: UO-31, 48 h, read-out: Activity
Just the number please, in %, no unit attached.

So for COC(=O)[C@@H](NC(=O)N[C@@H](Cc1ccccc1)C(=O)N[C@H]1CCCCNC(=O)/C=C/[C@H](Cc2ccccc2)NC1=O)C(C)C , the logged growth at 10 µM turned out to be 89.6

So for COC(=O)[C@@H](NC(=O)N[C@H](C(=O)N[C@H]1CCCCNC(=O)/C=C/[C@H](Cc2c[nH]c3ccccc23)NC1=O)C(C)C)C(C)C , the logged growth at 10 µM turned out to be 94.3

So for COC(=O)[C@@H](NC(=O)N[C@@H](Cc1ccccc1)C(=O)N[C@H]1CCCCNC(=O)/C=C/[C@H](Cc2c[nH]c3ccccc23)NC1=O)C(C)C , the logged growth at 10 µM turned out to be 84

So for COC(=O)[C@@H](NC(=O)N[C@H](C(=O)N[C@H]1CCCCNC(=O)/C=C/[C@H](C(C)C)NC1=O)C(C)C)C(C)C , the logged growth at 10 µM turned out to be 82.2

So for COC(=O)[C@@H](NC(=O)N[C@@H](Cc1ccccc1)C(=O)N[C@H]1CCCCNC(=O)/C=C/[C@H](C(C)C)NC1=O)C(C)C , the logged growth at 10 µM turned out to be 94.7

====

For each entry below, report its growth at 10 µM value.
- Test system: SW-620
- protocol_description: Cytotoxicity against human SW620 cells assessed as cell growth at 10 uM after 48 hrs relative to control
- Assay type: functional
- stated_conditions: SW-620, 48 h, read-out: Activity
Just the number please, in %, no unit attached.

So for COC(=O)[C@@H](NC(=O)N[C@H](C(=O)N[C@H]1CCCCNC(=O)/C=C/[C@H](C(C)C)NC1=O)C(C)C)C(C)C , the logged growth at 10 µM turned out to be 30.3

So for COC(=O)[C@@H](NC(=O)N[C@H](C(=O)N[C@H]1CCCCNC(=O)/C=C/[C@H](Cc2c[nH]c3ccccc23)NC1=O)C(C)C)C(C)C , the logged growth at 10 µM turned out to be 58.3

So for COC(=O)[C@@H](NC(=O)N[C@@H](Cc1ccccc1)C(=O)N[C@H]1CCCCNC(=O)/C=C/[C@H](Cc2ccccc2)NC1=O)C(C)C , the logged growth at 10 µM turned out to be 23.1

So for COC(=O)[C@@H](NC(=O)N[C@@H](Cc1ccccc1)C(=O)N[C@H]1CCCCNC(=O)/C=C/[C@H](Cc2c[nH]c3ccccc23)NC1=O)C(C)C , the logged growth at 10 µM turned out to be 87.7

So for COC(=O)[C@@H](NC(=O)N[C@@H](Cc1ccccc1)C(=O)N[C@H]1CCCCNC(=O)/C=C/[C@H](C(C)C)NC1=O)C(C)C , the logged growth at 10 µM turned out to be 38.5

====

- System: SK-OV-3
- protocol_description: Cytotoxicity against human SKOV3 cells assessed as cell growth at 10 uM after 48 hrs relative to control
- Format: functional
- stated_conditions: SK-OV-3, 48 h, read-out: Activity
growth at 10 µM vs 60%: less than gives criterion met; not less than gives criterion not met.

Ask | Answer whether the compound COC(=O)[C@@H](NC(=O)N[C@@H](Cc1ccccc1)C(=O)N[C@H]1CCCCNC(=O)/C=C/[C@H](C(C)C)NC1=O)C(C)C has growth at 10 µM strictly less than 60%
Reply | criterion not met

Ask | Answer whether the compound COC(=O)[C@@H](NC(=O)N[C@H](C(=O)N[C@H]1CCCCNC(=O)/C=C/[C@H](C(C)C)NC1=O)C(C)C)C(C)C has growth at 10 µM strictly less than 60%
Reply | criterion met

Ask | Answer whether the compound COC(=O)[C@@H](NC(=O)N[C@@H](Cc1ccccc1)C(=O)N[C@H]1CCCCNC(=O)/C=C/[C@H](Cc2c[nH]c3ccccc23)NC1=O)C(C)C has growth at 10 µM strictly less than 60%
Reply | criterion not met

Ask | Answer whether the compound COC(=O)[C@@H](NC(=O)N[C@H](C(=O)N[C@H]1CCCCNC(=O)/C=C/[C@H](Cc2c[nH]c3ccccc23)NC1=O)C(C)C)C(C)C has growth at 10 µM strictly less than 60%
Reply | criterion met

====

- System: MDA-MB-468
- protocol_description: Cytotoxicity against human MDA-MB-468 cells assessed as cell growth at 10 uM after 48 hrs relative to control
- Assay type: functional
- stated_conditions: MDA-MB-468, 48 h, read-out: Activity
For each entry below, report its growth at 10 µM value.
Just the number please, in %, no unit attached.

So for COC(=O)[C@@H](NC(=O)N[C@@H](Cc1ccccc1)C(=O)N[C@H]1CCCCNC(=O)/C=C/[C@H](Cc2c[nH]c3ccccc23)NC1=O)C(C)C , the logged growth at 10 µM turned out to be 18

So for COC(=O)[C@@H](NC(=O)N[C@@H](Cc1ccccc1)C(=O)N[C@H]1CCCCNC(=O)/C=C/[C@H](Cc2ccccc2)NC1=O)C(C)C , the logged growth at 10 µM turned out to be 0.26

So for COC(=O)[C@@H](NC(=O)N[C@H](C(=O)N[C@H]1CCCCNC(=O)/C=C/[C@H](C(C)C)NC1=O)C(C)C)C(C)C , the logged growth at 10 µM turned out to be -0.21

So for COC(=O)[C@@H](NC(=O)N[C@@H](Cc1ccccc1)C(=O)N[C@H]1CCCCNC(=O)/C=C/[C@H](C(C)C)NC1=O)C(C)C , the logged growth at 10 µM turned out to be 31.2
